These entries and their values trace back to a melting point compilation (Tetko et al.; mined from patent text by program, amines drawn as free bases though some values may be those of a salt).

Endpoint: melting point

{"columns": ["Compound", "Recorded value"],
 "data": [
  ["Cc1cc(-c2cccc(C(F)(F)F)c2)c2ncc(OC(F)F)nc2c1", "105 to 106 °C"],
  ["CC1CCc2c(N3CCC(Cc4ccccc4)CC3)c(F)cc3c(=O)c(C(=O)O)cn1c23 (configuration not stated)", "230 to 232 °C"],
  ["CC(=O)Nc1cc(C)c(N)c(C)c1[N+](=O)[O-]", "197 °C"],
  ["COc1cccc(-c2c3cccc(OC(C)=O)c3c(OC(C)=O)c3c(OC(C)=O)cccc23)c1", "278 °C"],
  ["CCOC(=O)CC1(c2ccccc2)CNC(=O)C1 (configuration not stated)", "49 to 51 °C"],
  ["O=c1[nH]c(SCc2ccccc2)nc2c1NCN2C(c1ccccc1)(c1ccccc1)c1ccccc1", "267 to 270 °C"],
  ["CCCCCCCOc1cc(F)nc(N)n1", "30 to 32 °C"],
  ["CC(C)(C)c1ccccc1N1CCN(C(=O)c2ccccn2)CC1", "140 to 145 °C"],
  ["CC(C)c1nc(CO)n(C)c1Sc1cc(Cl)cc(Cl)c1", "157 to 158 °C"],
  ["Cc1ccc(C=CC(=O)C=Cc2ccc(C)cc2)cc1", "174 to 176 °C"],
  ["CC(C)n1c(=O)n(C)c(=O)c2c(S(=O)CCCO)n(Cc3cccc4ccccc34)cc21 (configuration not stated)", "184 to 185 °C"],
  ["NS(=O)(=O)c1c(-c2ccccc2)sc2ccccc12", "185 to 186 °C"],
  ["CC(C)n1nc(-c2sc(NC(C)(C)C)nc2-c2ccccc2)ccc1=O", "189 to 190 °C"],
  ["O=c1oc2c(OCc3nnn[nH]3)c(O)c(OCc3nnn[nH]3)c(O)c2c2c1CCCC2", "283 to 286 °C"],
  ["CSc1nc(=O)n(-c2ccc(Cl)c(C(=O)OC(C)C)c2)c(=O)n1C#N", "55 to 56 °C"],
  ["O=C(CCCN1CCC(c2ccc(Cl)cc2)CC1)c1ccc(CN2CCCC2)cc1", "63 to 65 °C"],
  ["Cc1cccc(-n2c(CCl)nc3ccccc3c2=O)c1", "183 to 185 °C"],
  ["COc1ccc(CN(C)CCOc2ccc(NC(=O)c3cccc4c(=O)c5ccccc5[nH]c34)cc2)cc1", "146 °C"],
  ["CC(C)COC(=O)N1CCN(c2nc3cccccc-3n2)CC1", "130 to 133 °C"],
  ["CCCCCCCc1nnc(-c2ccc(O)cc2)s1", "100 °C"],
  ["C[C@@H](NC(=O)c1csc(-c2ccc(Cl)cc2)n1)[C@](O)(Cn1cncn1)c1ccc(F)cc1F", "201 to 204 °C"],
  ["O=C(O)c1n[nH]c2ncccc12", "175 to 176 °C"],
  ["O=C1NCC2(CCN(Cc3ccccc3)CC2)O1", "159 to 161 °C"],
  ["CNC(=O)N(Cc1ccc(C)c(C)c1)NC(=O)OC(C)(C)C", "99.7 to 105 °C"],
  ["COc1cccc(-c2nc(NO)nc(Nc3cccc([N+](=O)[O-])c3)n2)c1", "197 to 198 °C"],
  ["CCCc1c(CSc2nnc(SCc3ccc(OC(C)C(=O)O)cc3)s2)ccc(C(C)=O)c1O (configuration not stated)", "138 °C"],
  ["CNc1ncc(-c2ccc(C)cc2)c(-c2ccc(C)cc2)n1", "160 to 162 °C"],
  ["N#Cc1[nH]c(Br)c(Br)c1-c1ccc(Cl)cc1", "> 250 °C"],
  ["CC(=O)N1C(C(=O)O)CSC1c1ccccc1OCCO[N+](=O)[O-] (configuration not stated)", "159 to 162 °C"],
  ["COc1ccc(NC(=O)c2ccc([N+](=O)[O-])cc2)c(OC)c1", "172 to 174 °C"],
  ["CCN(CC)CCn1cc(C(=O)NCc2ccc(Cl)cc2)c(=O)c2cc(C#CCO)ccc21", "145 to 148 °C"],
  ["COc1cc2sc(C(=O)O)c(Cl)c2cc1OC", "> 260 °C"],
  ["CC(Br)CCC(C)(N)P(O)O (configuration not stated)", "146 to 148 °C"],
  ["CCOC(=O)c1cn(CC)c2nc(N3CCN(C)CC3)ccc2c1=O", "130 °C"],
  ["CCc1c2s[nH]c(=O)c2c(=O)n2ccc(Cl)cc12", "222 to 223 °C"],
  ["O=C1CCN(C2c3ccccc3COc3ccc(Br)cc32)CC1 (configuration not stated)", "196 to 200 °C"],
  ["CCOCc1nc2c(N)nc(C)c(C)c2n1CCCNC(=O)OCC", "148 to 150 °C"],
  ["CCOC(=O)c1c(C)cc2c(c1C)C(=O)O/C2=C\\C#N", "108 to 109 °C"],
  ["Cc1noc(CCNC(c2ccccc2)(c2ccccc2)c2ccccc2)n1", "100 to 101 °C"],
  ["CC1(c2ccc(F)cc2)OC(C=Cc2ccccn2)=CC1=O (configuration not stated)", "70 to 72 °C"],
  ["Fc1ccc(-c2n[nH]cc2-c2ccnc(NCc3ccccc3)n2)cc1", "216 to 217 °C"],
  ["COC(=O)C=C1NCC(c2ccccc2)OC1=O (configuration not stated)", "125 to 126 °C"]
]}
